test: Clearance in mouse at 5 mg/kg, iv; type: ADME, organism-based; conditions: in vivo
property-name: clearance (L/h/kg)
Unit L/h/kg implied. Number only.

Query string: Give the measured clearance of Cc1cc(Nc2nc(Nc3ccccc3S(=O)(=O)C(C)C)c3cc[nH]c3n2)c(OC(C)C)cc1C1CCNCC1 .
Result string: 2.4

Query string: # query: clearance of entry Cc1cc(Nc2nc(Nc3ccccc3S(=O)(=O)C(C)C)c3c(C)[nH]nc3n2)c(OC(C)C)cc1C1CCN(C)CC1
Result string: 4.26

Query string: For Cc1cc(Nc2nc(Nc3ccccc3S(=O)(=O)C(C)C)c3cc[nH]c3n2)c(OC(C)C)cc1C1CCN(C)CC1 , what is its reported clearance?
Result string: 3.48

Recorded values, source ChEMBL document CHEMBL4715698.
